Molecular target: T1, EsCas13d, nuclease-dead (Eubacterium siraeum, UniProt B0MS50, R295A;H300A;R849A;H854A)
T1 sequence: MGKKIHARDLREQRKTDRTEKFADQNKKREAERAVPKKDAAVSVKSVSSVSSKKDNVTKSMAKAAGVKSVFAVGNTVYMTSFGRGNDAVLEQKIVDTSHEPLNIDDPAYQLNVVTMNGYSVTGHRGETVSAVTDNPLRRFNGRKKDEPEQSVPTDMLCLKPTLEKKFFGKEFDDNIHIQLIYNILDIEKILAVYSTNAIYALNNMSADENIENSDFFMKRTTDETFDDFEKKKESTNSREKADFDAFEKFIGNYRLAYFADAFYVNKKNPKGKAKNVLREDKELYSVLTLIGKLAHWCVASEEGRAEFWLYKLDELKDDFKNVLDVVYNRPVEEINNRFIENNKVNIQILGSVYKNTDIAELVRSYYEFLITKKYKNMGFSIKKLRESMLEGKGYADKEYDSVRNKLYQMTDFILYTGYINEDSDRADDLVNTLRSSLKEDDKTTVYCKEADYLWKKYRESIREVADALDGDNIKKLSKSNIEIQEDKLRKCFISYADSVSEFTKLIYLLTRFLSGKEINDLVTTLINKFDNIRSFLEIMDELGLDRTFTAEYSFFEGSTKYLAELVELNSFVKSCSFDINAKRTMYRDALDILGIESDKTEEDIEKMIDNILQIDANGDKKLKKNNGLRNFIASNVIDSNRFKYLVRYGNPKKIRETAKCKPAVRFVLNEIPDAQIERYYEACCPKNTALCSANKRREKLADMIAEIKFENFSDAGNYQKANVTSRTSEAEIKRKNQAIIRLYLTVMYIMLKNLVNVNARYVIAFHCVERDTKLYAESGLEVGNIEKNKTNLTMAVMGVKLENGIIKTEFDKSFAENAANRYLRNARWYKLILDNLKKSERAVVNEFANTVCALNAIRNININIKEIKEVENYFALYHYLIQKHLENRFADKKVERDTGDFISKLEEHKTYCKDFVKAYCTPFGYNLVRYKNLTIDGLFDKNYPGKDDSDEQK
Experiment: crRNA (strand 1, pre-loaded); Mg2+; 40 mM Tris-HCl pH 7.5, 150 mM NaCl, 6 mM MgCl2, 1 mM DTT, 0.1% Tween-20, 0.2 mg/ml BSA; 25 C; 10 min per concentration, then washed
Conditions: tags: His6-TwinStrep-SUMO cleaved; N-terminal SNAP kept (SNAP-Surface 488); label: 3' end held by stalled T7 RNA polymerase
Exercise: state measured pKd for each of the binders provided.
Quick note: pKd values are minus log10 of concentrations in mol/L.

So what does the record say about pKd for target 3 C1A,G3C (mixed) RNA 1: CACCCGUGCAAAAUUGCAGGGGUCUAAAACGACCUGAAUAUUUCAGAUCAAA RNA 2: GGGAAUGGAUCCACAUCUACGAAUUCGUUUUUGAUCUGAAAUAUUCAGCUAUGCAGAUCGGAAGAGCACACGU ?
7.18

Next binder: target 1 MT 5'PFS GAC 3'PFS UAA (mixed) RNA 1: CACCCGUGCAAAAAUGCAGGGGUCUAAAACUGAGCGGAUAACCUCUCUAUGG RNA 2: GGGAAUGGAUCCACAUCUACGAAUUCGACCCAUAGAGAGGUUAUCCGCUCAUAAAGAUCGGAAGAGCACACGU
7.76
